Biological target: Amyloid-beta precursor protein (Homo sapiens)
Sequence (P05067 whole entry): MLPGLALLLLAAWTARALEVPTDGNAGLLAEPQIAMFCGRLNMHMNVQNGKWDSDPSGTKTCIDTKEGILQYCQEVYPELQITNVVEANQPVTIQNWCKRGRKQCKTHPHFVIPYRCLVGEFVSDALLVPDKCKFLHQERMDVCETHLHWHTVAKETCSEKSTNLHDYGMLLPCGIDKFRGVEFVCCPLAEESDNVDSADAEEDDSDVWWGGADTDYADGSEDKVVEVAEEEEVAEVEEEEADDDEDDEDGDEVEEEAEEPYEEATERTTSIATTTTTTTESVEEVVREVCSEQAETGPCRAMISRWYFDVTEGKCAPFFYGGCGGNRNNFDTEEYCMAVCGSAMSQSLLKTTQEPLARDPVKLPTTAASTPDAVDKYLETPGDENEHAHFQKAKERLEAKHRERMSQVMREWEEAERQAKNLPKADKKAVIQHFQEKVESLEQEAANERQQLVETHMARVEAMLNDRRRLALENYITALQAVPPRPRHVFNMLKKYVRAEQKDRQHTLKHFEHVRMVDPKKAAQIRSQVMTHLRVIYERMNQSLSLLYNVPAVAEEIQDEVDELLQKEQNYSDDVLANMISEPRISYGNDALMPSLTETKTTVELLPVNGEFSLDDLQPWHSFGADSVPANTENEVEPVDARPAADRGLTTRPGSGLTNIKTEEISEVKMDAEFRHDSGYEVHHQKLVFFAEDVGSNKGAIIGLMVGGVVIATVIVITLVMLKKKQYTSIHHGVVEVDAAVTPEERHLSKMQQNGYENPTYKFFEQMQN
Assay: Binding affinity to amyloid beta (1 to 40) (unknown origin) fibrils
pKd: −log10 of the molar value.
Recorded Metric: pKd

Smiles Entry: C[N+]1=C(/C=C/c2ccc(N3CCCC3)cc2)C(C)(C)c2ccccc21
Recorded Metric: pKd
Reported Measurement: 5.08

Smiles Entry: CCCCN(CCCC)c1ccc2cc(/C=C/c3cc[n+](CCO)c4ccccc34)ccc2c1
Recorded Metric: pKd
Reported Measurement: 4.48

Smiles Entry: CCCCN(CCCC)c1ccc2cc(/C=C/c3cc[n+](C)c4ccccc34)ccc2c1
Recorded Metric: pKd
Reported Measurement: 4.41

Smiles Entry: COCCOCCn1c2ccccc2c2cc(/C=C/c3cc[n+](C)c4ccccc34)ccc21
Recorded Metric: pKd
Reported Measurement: 4.88

Smiles Entry: CCCC[N+]1=C(/C=C/c2ccc(N(CC)CC)cc2)C(C)(C)c2ccccc21
Recorded Metric: pKd
Reported Measurement: 6.03

Smiles Entry: CCCN(CCC)c1ccc(/C=C/c2cc[n+](OCC)c3ccccc23)cc1
Recorded Metric: pKd
Reported Measurement: 5.95

Smiles Entry: CC[n+]1c(/C=C/C=C/c2ccc(N(C)C)cc2)sc2ccccc21
Recorded Metric: pKd
Reported Measurement: 5.91

Smiles Entry: COCCOCCn1c2ccccc2c2cc(/C=C/c3cc[n+](CCO)c4ccccc34)ccc21
Recorded Metric: pKd
Reported Measurement: 4.04

Smiles Entry: COCCOCCn1c2ccccc2c2cc(/C=C/c3cc[n+](C)cc3)ccc21
Recorded Metric: pKd
Reported Measurement: 3.71

Smiles Entry: C[n+]1ccc(/C=C/c2ccc(N(c3ccccc3)c3ccccc3)cc2)c2ccccc21
Recorded Metric: pKd
Reported Measurement: 4.84

Smiles Entry: COCCOCCn1c2ccc(F)cc2c2cc(/C=C/c3cc[n+](CCO)c4ccccc34)ccc21
Recorded Metric: pKd
Reported Measurement: 5.72

Smiles Entry: CCCCN(CCCC)c1ccc2cc(/C=C/c3c[n+](C)cc4ccccc34)ccc2c1
Recorded Metric: pKd
Reported Measurement: 2.96

Smiles Entry: COCCOCCn1c2ccccc2c2cc(/C=C/c3cc[n+](CCO)cc3)ccc21
Recorded Metric: pKd
Reported Measurement: 3.34

Smiles Entry: CCO[n+]1ccc(/C=C/c2ccc(N(C)C)cc2)c2ccccc21
Recorded Metric: pKd
Reported Measurement: 5.37

From: ChEMBL document CHEMBL5137055
